MEASUREMENT SETUP: 323.15 K; 101.33 kPa; Liquid; Vibrating tube method
MEASURED ATTRIBUTE: mass density (kg/m3)
Report as a plain number; the unit kg/m3 is understood.

Reported mass density, compound `Cc1ccc(C)cc1` : ____
834.81

Reported mass density, compound `CCc1ccccc1` : ____
840.42

Reported mass density, compound `Cc1ccccc1C` : ____
854.02

Reported mass density, compound `Cc1ccccc1` : ____
838.76

Reported mass density, compound `CCCCN(CCCC)CCCC` : ____
754.45

Reported mass density, compound `Cc1cccc(C)c1` : ____
837.92

Reported mass density, compound `O=[N+]([O-])c1ccccc1` : ____
1173.38
